# Assay protocol: in vivo
# Condition set: male, Sprague-Dawley, rat, po, 10 mg/kg
Value type: AUC(0-t) (ng·h/mL)
Report as a plain number; the unit ng·h/mL is understood.

Input line: For the compound C=CC(=O)N1CCC[C@@H](c2nc(-c3ccc(Oc4ccccc4)cc3)c3c(N)ncnn23)C1 , what AUC(0-t) is on record?
Output line: 820

----------
# Assay protocol: in vivo
# Condition set: male, Sprague-Dawley, rat, po, 10 mg/kg
Value type: Cmax (ng/mL)
Report as a plain number; the unit ng/mL is understood.

Input line: For the compound C=CC(=O)N1CCC[C@@H](c2nc(-c3ccc(Oc4ccccc4)cc3)c3c(N)ncnn23)C1 [Example 8] , what Cmax is on record?
Output line: 348
